system: LNCaP cells; assay: LNCaP cell viability assay (MTS); type: cell-based; settings: Homo sapiens, LNCaP, 48 h, LNCaP cell line
Would you kindly list GI50 for each of these molecules?
Give bare numbers, in µM.

Here are 5 molecules together with their reported answers.
CC1(C)CC1(CNS(=O)(=O)c1ccc(OC(F)(F)F)cc1)c1ccc(F)cc1F (centres unmarked) [Compound 84] : 18
CN(C)CC(NS(=O)(=O)c1ccc(-c2ccccc2)cc1)c1ccc(Cl)c(Cl)c1 (centres unmarked) [Compound 143] : 11.2
O=S(=O)(NCC1CN(Cc2ccccc2)CC12CCC2)c1ccc(OC(F)(F)F)cc1 (centres unmarked) [Compound 91] : 28
O=S(=O)(NC(c1cccc(C(F)(F)F)c1)C1CCCCC1)c1ccc(OC(F)(F)F)cc1 (centres unmarked) [Compound 36] : 29.1
CCCOc1ccc(S(=O)(=O)NC(CN(C)C)c2ccc(Cl)c(Cl)c2)cc1 (centres unmarked) [Compound 267] : 23.8

Could you tell me GI50 for each of these molecules? They are listed below.
1. O=S(=O)(NCC1CCCCC1c1ccccc1)c1ccc(OC(F)(F)F)cc1 (centres unmarked) [Compound 49]
2. O=S(=O)(NC(c1cc(Cl)cc(Cl)c1)C1CCCCC1)c1ccc(OC(F)(F)F)cc1 (centres unmarked) [Compound 69]
3. O=S(=O)(NCC1(c2ccccc2)CCNCC1)c1ccc(OC(F)(F)F)cc1 [Compound 260]

## Output
39
9
33.6

###

tested on: LNCaP cells; test: LNCaP cell viability assay (MTS); assay type: cell-based; conditions: Homo sapiens, LNCaP, 48 h, LNCaP cell line
Would you kindly list GI50 for each of these compounds?
One number for each entry, in µM.

O=S(=O)(NC(c1cccc(Cl)c1)C1CCCC1)c1ccc(OC(F)(F)F)cc1 (centres unmarked) [Compound 41] : 37.3
COC(=O)C(Cc1ccc(O)c(F)c1)NS(=O)(=O)c1ccc(OC(F)(F)F)cc1 (centres unmarked) [Compound 112] : 38
O=S(=O)(NCC1(c2cccc(C(F)(F)F)c2)CCC1)c1ccc(OC(F)(F)F)cc1 [Compound 57] : 38
CC1CCN(C(CNS(=O)(=O)c2ccc(OC(F)(F)F)cc2)c2ccco2)CC1 (centres unmarked) [Compound 31] : 45.9

Could you tell me GI50 for each of these compounds? They are listed below.
1. O=S(=O)(NC(CN1CCOCC1)c1ccc(Cl)c(Cl)c1)c1ccc(OC(F)(F)F)cc1 (centres unmarked) [Compound 169]
2. CC(C)CC(NS(=O)(=O)c1ccc(OC(F)(F)F)cc1)C(=O)Nc1nccs1 (centres unmarked) [Compound 109]
3. O=S(=O)(NCc1ccccc1S(=O)(=O)N1CCCCC1)c1ccc(OC(F)(F)F)cc1 [Compound 2]
4. CCOC(=O)C(CC1CCOC1)NS(=O)(=O)c1ccc(OC(F)(F)F)cc1 (centres unmarked) [Compound 110]
5. CN(C)CC(NS(=O)(=O)c1ccc(OC(F)(F)F)c([N+](=O)[O-])c1)c1cccc(C(F)(F)F)c1 (centres unmarked) [Compound 205]
6. CN(C)CC1(CNS(=O)(=O)c2ccc(OC(F)(F)F)cc2)CC1 [Compound 98]
7. O=S(=O)(NCC1(Cc2ccc(Br)cc2)CC1)c1ccc(OC(F)(F)F)cc1 [Compound 81]
8. O=S(=O)(NCC1(c2c(Cl)cccc2Cl)CCC1)c1ccc(OC(F)(F)F)cc1 [Compound 56]

## Output
1: 53.7; 2: 25; 3: 58.3; 4: 61; 5: 2.27; 6: 29; 7: 40; 8: 30

Could you tell me GI50 for each of these compounds? They are listed below.
1. CCc1ccc(S(=O)(=O)NC(CN(C)C)c2ccc(Cl)c(Cl)c2)cc1 (centres unmarked) [Compound 212]
2. CN1CCN(CC(NS(=O)(=O)c2ccc(Oc3ccc(F)cc3)cc2)c2ccc(Cl)c(Cl)c2)CC1 (centres unmarked) [Compound 269]
3. CC(NS(=O)(=O)c1ccc(OC(F)(F)F)cc1)c1cc(F)ccc1N1CCC(O)CC1 (centres unmarked) [Compound 21]

## Output
1: 34.6; 2: 15; 3: 46.8

Could you tell me GI50 for each of these compounds? They are listed below.
1. CN1CCN(CC(NS(=O)(=O)c2ccc(OC(F)(F)F)cc2)c2ccc(Cl)cc2)CC1 (centres unmarked) [Compound 184]
2. CN(C)CC(NS(=O)(=O)c1ccc(OC(F)(F)F)cc1)c1cccc(C(F)(F)F)c1 (centres unmarked) [Compound 120]

## Output
1. 23.4
2. 46.3
